Biological target: UniProtKB O00763
Test: ACC2 assay (spectrophotometric 384 well assay, NADH-linked kinetic method)
Assay type: biochemical
Conditions: hACC2 construct lacking 128 N-terminal amino acids; coupled lactate dehydrogenase/pyruvate kinase reaction, 340 nm, 25° C.
measure.name: IC50 (µM)
One number for each entry, in µM.

A selection of reference data follows.
CC(=O)N[C@@H](C)c1ccc(O[C@@H]2CCN(c3nc(N4CCCC4)ncc3F)C2)cc1 | 0.067
CCN(c1nccc(N2CC[C@@H](Oc3ccc([C@H](C)NC(C)=O)cc3)C2)n1)C(C)C | 0.18
CCN(C)c1ccnc(N2CC[C@@H](Oc3ccc([C@H](C)NC(C)=O)cc3)C2)n1 | 0.244

Now look at this one.
Give a short answer stating reported IC50 for CC(=O)N[C@@H](C)c1ccc(O[C@@H]2CCN(c3ccnc(N(C)C(C)C)n3)C2)cc1 .
0.294

---

Target: human ACC2 (Homo sapiens (Human))
Experiment: ACC2 assay (spectrophotometric 384 well assay, NADH-linked kinetic method)
Assay type: biochemical
Details: hACC2 construct lacking 128 N-terminal amino acids; coupled lactate dehydrogenase/pyruvate kinase reaction, 340 nm, 25° C.
Returns: string. Value is TRUE if measured IC50 is below 100 nM, and FALSE if it is greater than or equal to it.

Some solved entries appear below for comparison.
CC(=O)N[C@@H](C)c1ccc(O[C@@H]2CCN(c3nc(N(C)C4CCCC4)ncc3C#N)C2)cc1 | FALSE
COC[C@@H]1CCCN1c1ncc(F)c(N2CC[C@@H](Oc3ccc([C@H](C)NC(C)=O)cc3)C2)n1 | FALSE
CC(=O)N[C@@H](C)c1ccc(O[C@@H]2CCN(c3ncnc(C4CC4)c3F)C2)cc1 | FALSE
CCC(=O)Nc1nc(C)c(C(=O)N[C@@H](C)c2ccc(O[C@@H]3CCN(c4ncnc(NCC(F)F)c4OC)C3)cc2)s1 | FALSE
CC(=O)N[C@@H](C)c1ccc(O[C@@H]2CCN(c3ncnc(N(C)C[C@H]4CCCO4)c3F)C2)cc1 | FALSE
CC(=O)N[C@@H](C)c1ccc(O[C@@H]2CCN(c3ccnc(N(C)CC4CCOC4)n3)C2)cc1 (some centres unmarked) | FALSE

Now turn to the next compound.
Does this compound meet the criterion IC50 < 100 nM? CC(=O)N[C@@H](C)c1ccc(O[C@@H]2CCN(c3nc(N4CCC(C)C4)ncc3F)C2)cc1 (some centres unmarked)
TRUE

---

Biological target: human ACC2 (Homo sapiens (Human), UniProt O00763)
Sequence (O00763 129-2458): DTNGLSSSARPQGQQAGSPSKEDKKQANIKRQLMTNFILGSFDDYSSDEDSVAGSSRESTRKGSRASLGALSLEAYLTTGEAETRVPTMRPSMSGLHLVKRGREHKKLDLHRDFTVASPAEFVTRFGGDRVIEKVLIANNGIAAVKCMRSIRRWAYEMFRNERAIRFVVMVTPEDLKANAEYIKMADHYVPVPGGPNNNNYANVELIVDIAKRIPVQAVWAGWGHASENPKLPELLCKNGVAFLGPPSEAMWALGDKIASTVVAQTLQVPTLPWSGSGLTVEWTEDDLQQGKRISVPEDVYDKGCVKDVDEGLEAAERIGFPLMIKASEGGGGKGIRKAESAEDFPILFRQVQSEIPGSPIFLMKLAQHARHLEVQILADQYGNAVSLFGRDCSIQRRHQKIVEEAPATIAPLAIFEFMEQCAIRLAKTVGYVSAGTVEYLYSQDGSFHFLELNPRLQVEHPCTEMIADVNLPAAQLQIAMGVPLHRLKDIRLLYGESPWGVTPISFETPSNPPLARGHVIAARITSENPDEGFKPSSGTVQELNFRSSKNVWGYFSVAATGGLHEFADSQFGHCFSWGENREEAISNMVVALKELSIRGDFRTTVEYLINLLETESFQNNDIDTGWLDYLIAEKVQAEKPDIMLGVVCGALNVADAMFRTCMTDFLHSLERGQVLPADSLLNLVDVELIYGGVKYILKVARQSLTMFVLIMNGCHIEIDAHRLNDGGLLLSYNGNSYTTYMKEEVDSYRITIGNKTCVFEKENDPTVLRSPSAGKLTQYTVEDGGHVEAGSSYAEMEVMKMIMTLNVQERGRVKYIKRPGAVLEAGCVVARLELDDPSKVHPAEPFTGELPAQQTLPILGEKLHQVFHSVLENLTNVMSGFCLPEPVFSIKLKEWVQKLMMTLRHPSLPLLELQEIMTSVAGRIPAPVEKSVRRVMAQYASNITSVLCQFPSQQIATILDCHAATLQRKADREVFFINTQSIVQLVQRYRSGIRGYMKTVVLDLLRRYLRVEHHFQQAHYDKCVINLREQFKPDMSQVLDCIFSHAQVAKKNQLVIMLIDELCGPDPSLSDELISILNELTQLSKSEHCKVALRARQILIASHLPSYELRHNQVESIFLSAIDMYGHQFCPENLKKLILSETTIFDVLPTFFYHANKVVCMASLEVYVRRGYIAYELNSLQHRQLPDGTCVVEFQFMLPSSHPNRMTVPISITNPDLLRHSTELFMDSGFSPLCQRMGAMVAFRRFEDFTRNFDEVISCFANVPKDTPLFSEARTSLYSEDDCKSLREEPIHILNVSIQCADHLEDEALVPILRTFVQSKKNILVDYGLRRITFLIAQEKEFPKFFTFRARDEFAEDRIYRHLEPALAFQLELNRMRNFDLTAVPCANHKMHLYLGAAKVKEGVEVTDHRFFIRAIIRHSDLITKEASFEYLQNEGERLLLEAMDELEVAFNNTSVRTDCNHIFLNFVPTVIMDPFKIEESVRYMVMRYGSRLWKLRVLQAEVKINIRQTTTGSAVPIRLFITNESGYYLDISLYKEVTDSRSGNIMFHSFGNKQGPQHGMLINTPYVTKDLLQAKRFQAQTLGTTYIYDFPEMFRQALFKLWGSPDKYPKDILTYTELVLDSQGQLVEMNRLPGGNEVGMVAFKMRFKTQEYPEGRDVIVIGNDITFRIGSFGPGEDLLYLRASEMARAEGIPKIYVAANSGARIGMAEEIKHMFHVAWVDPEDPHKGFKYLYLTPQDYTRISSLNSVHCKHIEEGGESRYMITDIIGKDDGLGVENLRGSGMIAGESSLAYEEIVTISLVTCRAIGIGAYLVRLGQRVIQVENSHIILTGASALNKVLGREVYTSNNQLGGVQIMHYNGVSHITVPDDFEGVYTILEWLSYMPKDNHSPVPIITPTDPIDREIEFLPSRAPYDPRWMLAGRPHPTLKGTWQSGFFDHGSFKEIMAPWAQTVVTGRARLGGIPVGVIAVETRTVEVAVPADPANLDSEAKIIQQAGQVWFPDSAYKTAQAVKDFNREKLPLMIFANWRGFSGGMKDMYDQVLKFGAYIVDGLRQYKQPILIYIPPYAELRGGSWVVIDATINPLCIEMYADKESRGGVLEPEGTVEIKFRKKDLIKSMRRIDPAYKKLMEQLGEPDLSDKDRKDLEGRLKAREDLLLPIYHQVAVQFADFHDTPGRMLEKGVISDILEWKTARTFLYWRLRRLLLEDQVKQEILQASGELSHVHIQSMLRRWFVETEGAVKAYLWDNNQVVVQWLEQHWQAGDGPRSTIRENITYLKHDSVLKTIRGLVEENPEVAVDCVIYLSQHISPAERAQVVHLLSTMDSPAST
Assay: ACC2 assay (spectrophotometric 384 well assay, NADH-linked kinetic method)
Type: biochemical
measure.name: pIC50
One number for each entry, as −log10 of the molar value.

# assay system human ACC2 (Homo sapiens (Human), UniProt O00763): give pIC50 of C[C@H](NC(=O)C1CC1)c1ccc(O[C@@H]2CCN(c3ccnc(N(C)CC(F)F)n3)C2)cc1 [Example 2.1]
7.19

---

Target: human ACC2 (Homo sapiens (Human))
Assay: ACC2 assay (spectrophotometric 384 well assay, NADH-linked kinetic method)
Type: biochemical
Conditions: hACC2 construct lacking 128 N-terminal amino acids; coupled lactate dehydrogenase/pyruvate kinase reaction, 340 nm, 25° C.
measure.name: pIC50
Answers are plain numbers, as −log10 of the molar value.

// below: answered compounds
CC(=O)N[C@@H](C)c1ccc(O[C@@H]2CCN(c3ccnc(N(C)CCC(F)(F)F)n3)C2)cc1 | 7.12
CC(=O)N[C@@H](C)c1ccc(O[C@@H]2CCN(c3ccnc(N(CCC#N)C4CC4)n3)C2)cc1 | 6.28
COC(C)(C)COc1ncnc(N2CC[C@@H](Oc3ccc([C@H](C)NC(C)=O)cc3)C2)c1F | 6.23

Please give pIC50 for each item listed below.
1. CC(=O)N[C@@H](C)c1ccc(O[C@@H]2CCN(c3ncnc(OCC(F)F)c3Cl)C2)cc1
2. CC(=O)N[C@@H](C)c1ccc(O[C@@H]2CCN(c3ncnc(NCC4(O)CCC4)c3F)C2)cc1
3. CC(=O)N[C@@H](C)c1ccc(O[C@@H]2CCN(c3ncnc(N(C)CC(C)C)c3F)C2)cc1
4. CC(=O)N[C@@H](C)c1ccc(O[C@@H]2CCN(c3nc(N4CC=CC4)ncc3F)C2)cc1
5. COC[C@H](C)N(C)c1nccc(N2CC[C@@H](Oc3ccc([C@H](C)NC(C)=O)cc3)C2)n1
6. CC(=O)N[C@@H](C)c1ccc(O[C@@H]2CCN(c3ncnc(N4CCC[C@@H]4C)c3F)C2)cc1
7. CCN(C)c1ncnc(N2CC[C@@H](Oc3ccc([C@H](C)NC(C)=O)cc3)C2)c1Cl

6.96
6.44
6.70
6.78
6.02
6.62
7.06

Record pIC50 for all entries; do not skip any.
1. CC(=O)N[C@@H](C)c1ccc(O[C@@H]2CCN(c3ncnc(N(C)C)c3F)C2)cc1
2. CC(=O)N[C@@H](C)c1ccc(O[C@@H]2CCN(c3nc(N(C)CC4CCOC4)ncc3Cl)C2)cc1 (stereo partly drawn)

[6.36, 6.90]

---

Exercise: for every item that follows, state its recorded pIC50.
Biological target: UniProt:O00763
Test: ACC2 assay (spectrophotometric 384 well assay, NADH-linked kinetic method)
Type: biochemical
Settings: hACC2 construct lacking 128 N-terminal amino acids; coupled lactate dehydrogenase/pyruvate kinase reaction, 340 nm, 25° C.
One number for each entry, as −log10 of the molar value.

Please give pIC50 for each item listed below.
1. COc1c(OCC2CC2)ncnc1N1CC[C@@H](Oc2ccc([C@H](C)NC(=O)c3coc(NC(C)=O)n3)cc2)C1 [Example 2.33]
2. CCN(C)c1ncc(F)c(N2CC[C@@H](Oc3ccc([C@H](C)NC(C)=O)cc3)C2)n1 [Example 8.31]

1: 6.04; 2: 7.02

Batch of 5 molecules: report pIC50 for each.
1. CC(=O)N[C@@H](C)c1ccc(O[C@@H]2CCN(c3nc(N4CCC[C@@H]4C)ncc3Cl)C2)cc1 [Example 8.281]
2. CC(=O)N[C@@H](C)c1ccc(O[C@@H]2CCN(c3nc(N4CCC5(CC5)C4)ncc3Cl)C2)cc1 [Example 8.276]
3. CCOc1ncnc(N2CC[C@@H](Oc3ccc([C@H](C)NC(C)=O)cc3)C2)c1Cl [Example 7.22]
4. CCN(C)c1nccc(N2CCC(Oc3ccc([C@H](C)NC(=O)C4CC4)cc3)C2)n1 (stereo partly shown) [Example 2.14]
5. C[C@H](NC(=O)C1CC1)c1ccc(O[C@@H]2CCN(c3nc(N4CCC5(CC5)C4)ncc3F)C2)cc1 [Example 10.4]

6.43
6.76
6.85
7.20
6.92

---

Molecular target: human ACC2 (Homo sapiens (Human))
Assay: ACC2 assay (spectrophotometric 384 well assay, NADH-linked kinetic method)
Type: biochemical
Conditions: hACC2 construct lacking 128 N-terminal amino acids; coupled lactate dehydrogenase/pyruvate kinase reaction, 340 nm, 25° C.
Decide using IC50 alone. Strictly below 200 nM: met. Equal to or above 200 nM: not met.

CCCOc1ncnc(N2CC[C@@H](Oc3ccc([C@H](C)NC(C)=O)cc3)C2)c1OC | not met
CC(=O)N[C@@H](C)c1ccc(O[C@@H]2CCN(c3ncnc(OC4CCOCC4)c3F)C2)cc1 | not met
CC(=O)N[C@@H](C)c1ccc(O[C@@H]2CCN(c3nc(N4CCC(C)C4)ncc3Cl)C2)cc1 (stereo partly shown) | met
COC(CN(C)c1nccc(N2CC[C@@H](Oc3ccc([C@H](C)NC(C)=O)cc3)C2)n1)OC | not met

Report whether reported IC50 is lower than 200 nM (strictly) for CC(=O)N[C@@H](C)c1ccc(O[C@@H]2CCN(c3ccnc(N(C)C)n3)C2)cc1
not met

Record CCC(=O)Nc1nc(C)c(C(=O)N[C@@H](C)c2ccc(O[C@@H]3CCN(c4ncc(OCC5CC5(F)F)cn4)C3)cc2)s1 (stereo partly shown) : is its IC50 strictly below 200 nM?
met

Is 200 nM strictly greater than the molecule's reported IC50? molecule: CC(=O)N[C@@H](C)c1ccc(O[C@@H]2CCN(c3nc(N4[C@H](C)CCC[C@H]4C)ncc3Cl)C2)cc1
met

---

Biological target: human ACC2 (Homo sapiens (Human), UniProt O00763)
Experiment: ACC2 assay (spectrophotometric 384 well assay, NADH-linked kinetic method)
Type: biochemical
Conditions: hACC2 construct lacking 128 N-terminal amino acids; coupled lactate dehydrogenase/pyruvate kinase reaction, 340 nm, 25° C.
Can you tell me IC50 for the items I'm about to list?
Answers are plain numbers, in nM.

A selection of reference data follows.
CC(=O)N[C@@H](C)c1ccc(O[C@@H]2CCN(c3ncnc(N4CC(C)C4)c3F)C2)cc1 [Example 8.200] | 354
COCCN(C)c1ncc(Cl)c(N2CC[C@@H](Oc3ccc([C@H](C)NC(C)=O)cc3)C2)n1 [Example 8.130] | 79
CC(=O)N[C@@H](C)c1ccc(O[C@@H]2CCN(c3ncnc(N(C)CCC(F)(F)F)c3F)C2)cc1 [Example 8.159] | 151

Respectfully, I request IC50 for each entry included below.
1. CC(=O)N[C@@H](C)c1ccc(O[C@@H]2CCN(c3ccnc(N4C[C@@H]5CC[C@@H](C4)O5)n3)C2)cc1 [Example 8.277]
2. C[C@H](NC(=O)c1cncs1)c1ccc(O[C@@H]2CCN(c3ccnc(N(C)CCC#N)n3)C2)cc1 [Example 8.98]
3. C[C@H](NC(=O)C(F)F)c1ccc(OC2CCN(c3ncnc(OCC4CC4)c3F)C2)cc1 (stereo partly shown) [Example 5.3]
4. CC(=O)N[C@@H](C)c1ccc(O[C@@H]2CCN(c3nc(N4CC5COCC5C4)ncc3F)C2)cc1 (stereo partly shown) [Example 8.272]

[867, 212, 65, 1190]
